Hey, just so you know, these numbers are from PubChem BioAssay (NCI).

- System: A498 renal
- Test Method Notes: NCI-60 one-dose screen, 48 h
- Condition Parameters: 10 µM
- Method: Growth inhibition of the A498 human tumor cell line is measured as a screen for anti-cancer activity. Cells are grown in 96 well plates and exposed to the test compound for 48 hours. Compounds are tested at a single concentration, which is 10^-5 M for most compounds. The reported endpoint is percent growth (GI% or GIPRCNT), where numbers from 0 - 100% represent growth inhibition, and numbers from -100% - 0 represent cell death. For example, a value of 40 represents 60% growth inhibition. […]
Compounds without any hit were thinned out: in the full panel of roughly 83,000, 20% have a hit. Active and inactive are the calls of the source. Rule for the calls: active = growth percent below 10; inactive = the rest.
Just give me one of these, please: active, inactive

Q) Dear all, I need the recorded test outcome for COc1cc(/C=C/C(=O)c2ccc(C(F)(F)F)cc2)ccc1Oc1nc(Nc2ccc(F)cc2)nc(N(C)C)n1 , thank you.
A) inactive

Q) How was CCN(CC)CCOc1ccc(C(=C(C)c2ccccc2)c2ccc(OCCN(CC)CC)cc2)cc1 classified in this test?
A) inactive

Q) Kindly provide the recorded test outcome for the following compound: O=C1Nc2ccc(F)cc2/C1=C/c1cccc(OCc2ccccn2)c1
A) inactive

Q) Please state the recorded outcome for this compound: COC1CC(Cn2cc(COc3ccc4ccc(=O)oc4c3)nn2)C(OCc2ccccc2)C(OCc2ccccc2)C1OCc1ccccc1 (centres undefined)
A) inactive

Q) Would you mind telling me which call this test gave COc1ccc2nc(Cl)c(-c3cc(-c4ccccc4)nc(=O)[nH]3)cc2c1 ?
A) inactive

Q) Outcome? O=C(CNc1nc(-c2ccccc2)cs1)Nc1cccc(Cl)c1
A) inactive

Q) # outcome recorded in this test, key = COc1cc(/C=C/C(=O)c2ccc(NC(=O)CSc3nnc(-c4c[nH]c5ccccc45)n3-c3ccccc3)cc2)cc(OC)c1OC
A) inactive

Q) Entry O=C1NC(=NC23CC4CC(CC(C4)C2)C3)N/C1=C\c1ccc2ncccc2n1 : call = ?
A) active

Q) For CC(C)CCSc1nc(NC2CC2)c(C#N)c(-c2ccc(C(C)C)cc2)n1 , what call appears in the results of this test?
A) inactive

Q) Please let me know the test result on file for CN(C)c1ccc(/C=C/C(=O)c2ccc(NC(=O)CN3C(=O)NC(C)(c4ccccc4)C3=O)cc2)cc1 (centres undefined) .
A) inactive

Q) Assay result, entry COc1ccc(-c2nc(S(=O)(=O)c3ccc(C)cc3)c(S(C)(=O)=O)o2)cc1 — outcome?
A) inactive

Q) How did this test come out for N[C@@H](CSSC[C@H](N)C(=O)Nc1ccc(OCC2CCCC2)cc1)C(=O)Nc1ccc(OCC2CCCC2)cc1 ?
A) active

Q) Kindly provide the recorded test outcome for the following compound: O=c1oc2ccc(-c3ccc(F)cc3F)cc2c(=O)n1-c1ccc(Cl)c(C(F)(F)F)c1
A) active

Q) Hi, do you know how Cc1cccc2cc(-c3cc(-c4ccccc4)nc(=O)[nH]3)c(Cl)nc12 came out in this test?
A) inactive

Q) So what was the verdict on CN1CCCN(Cc2ccc(C(=O)Nc3cccc(Nc4ccc5c(O)cccc5n4)c3)cc2C(F)(F)F)CC1 in this test?
A) inactive

Q) Could you check what this test reported for CC(=O)Nc1ccc(-n2cnc3cc(-c4ccc(O)cc4)ccc32)cc1C ?
A) inactive

Q) What classification did NS(=O)(=O)c1ccc(NC(=O)CSc2ccc(-c3ccc(Cl)cc3)nn2)c(Br)c1 end up with in this test?
A) active

Q) Entry O=C(c1ccc([N+](=O)[O-])c([N+](=O)[O-])c1O)n1[nH]c(=O)c2ccccc2c1=O : call = ?
A) inactive

Q) Test call, this compound: COc1cc(/C=C/C(=O)c2ccc(NC(=O)CN3C(=O)NC(C)(c4ccccc4)C3=O)cc2)cc(OC)c1OC (centres undefined)
A) inactive
